The reported measurements were obtained from patent US20230040770A1.

Biological target: human orexin type 2 receptor (Homo sapiens)
Construct: expressed in transfected cells
Sequence (O43614 whole entry): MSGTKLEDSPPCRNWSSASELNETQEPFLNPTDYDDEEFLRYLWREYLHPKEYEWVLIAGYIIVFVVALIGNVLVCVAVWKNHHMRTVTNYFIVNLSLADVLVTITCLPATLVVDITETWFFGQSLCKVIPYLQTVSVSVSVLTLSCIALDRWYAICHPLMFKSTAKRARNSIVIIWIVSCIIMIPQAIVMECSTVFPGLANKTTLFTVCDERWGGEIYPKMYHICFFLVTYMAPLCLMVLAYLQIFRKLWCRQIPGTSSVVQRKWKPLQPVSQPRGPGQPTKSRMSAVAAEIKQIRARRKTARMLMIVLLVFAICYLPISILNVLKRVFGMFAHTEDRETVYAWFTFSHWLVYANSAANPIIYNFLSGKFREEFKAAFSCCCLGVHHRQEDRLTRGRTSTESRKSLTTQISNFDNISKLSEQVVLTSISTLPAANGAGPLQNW
Experiment: Measurement of orexin type 2 receptor agonist activity (calcium indicator fluorescence, CHO cells forcibly expressing human OX2 receptor)
Type: cell-based
Conditions: compound at 3 μM; 0% = DMSO, 100% = orexin A (human) 10 nM
Source text: To obtain a cell clone stably expressing human orexin type 2 receptor, human orexin type 2 receptor cDNA was inserted into pcDNA3.1(+) plasmid vector (Invitrogen), and a plasmid DNA for expression of human orexin type 2 receptor (pcDNA3.1(+)/hOX2R) was cloned. The plasmid DNA was introduced into CHO-dhfr cell by an electroporation method, and human orexin type 2 receptor expressing clone cells were obtained by limiting dilution method by using G418 drug resistance as a selection marker. […]
PROPERTY NAME: OX2R agonist activity (3 μM, %)

{"columns": ["MOLECULE", "READING"],
 "data": [
  ["O=C(N1C[C@H](F)[C@H](NS(=O)(=O)C2CC2)[C@@H]1Cc1cccc(-c2cccc(F)c2)c1F)C12CC(C1)C2", 98],
  ["Cc1cccc(-c2cccc(C[C@H]3[C@@H](NS(=O)(=O)C4CC4)C(F)(F)CN3C(=O)N3CCC3)c2F)c1", 90],
  ["CCS(=O)(=O)N[C@H]1[C@@H](F)CN(C(=O)C2CCO2)[C@H]1Cc1cccc(-c2cccc(F)c2F)c1F (some centres unmarked)", 100],
  ["Cc1ccc(F)c(-c2cccc(C[C@H]3[C@@H](NS(=O)(=O)C4CC4)[C@@H](F)CN3C(=O)C3CCO3)c2F)c1 (some centres unmarked) [Example 492]", 90],
  ["CCS(=O)(=O)N[C@@H]1[C@H](Cc2cccc(-c3cccc(F)c3)c2F)N(C(=O)N2CCC2)CC1(F)F", 94],
  ["Cc1cccc(-c2cccc(C[C@H]3[C@@H](NS(=O)(=O)C4CC4)C(F)(F)CN3C(=O)[C@H]3CCO3)c2F)c1F", 94],
  ["CCS(=O)(=O)N[C@@H]1[C@H](Cc2cccc(-c3ccc(F)c(C)c3F)c2F)N(C(=O)C2CCO2)CC1(F)F (some centres unmarked) [Example 478]", 103],
  ["CCS(=O)(=O)N[C@H]1[C@@H](F)CN(C(=O)C(C)C)[C@H]1Cc1cccc(-c2cccc(F)c2F)c1F", 95],
  ["CCS(=O)(=O)N[C@@H]1[C@H](Cc2cccc(-c3cccc(C(F)F)c3)c2F)N(C(=O)[C@H]2CCCO2)CC1(F)F", 80],
  ["CCS(=O)(=O)N[C@@H]1[C@H](Cc2cccc(-c3ccc(F)c(F)c3)c2F)N(C(=O)C2CCO2)CC1(F)F (some centres unmarked) [Example 467]", 105],
  ["CCS(=O)(=O)N[C@@H]1[C@H](Cc2cccc(-c3cc(F)cc(F)c3)c2F)N(C(=O)[C@H]2CCO2)CC1(F)F", 95],
  ["CCS(=O)(=O)N[C@@H]1[C@H](Cc2cccc(-c3cc(C)cc(F)c3)c2F)N(C(=O)C2(O)CCC2)CC1(F)F", 86],
  ["CCS(=O)(=O)N[C@@H]1[C@H](Cc2cccc(-c3cccc(C)c3F)c2F)N(C(=O)C(C)(C)O)CC1(F)F", 100],
  ["CCS(=O)(=O)N[C@H]1[C@@H](F)CN(C(=O)C2CC2)[C@H]1Cc1cccc(-c2cccc(C)c2)c1F", 95]
]}
